Where do the numbers come from? From ChEMBL document CHEMBL1201862.

# Test system: HL-60
# method: NCI tumour cell line growth inhibition, 48 h
The source made the active and inactive calls. Cut-off read from the data, not from the text of the source: active = GI50 up to about 1.1 µM and inactive = higher.
Each entry below carries its recorded GI50.
measured-metric: GI50

{"compound": "O=C(CSCC(=O)N/N=C\\c1ccc(F)cc1F)N/N=C\\c1ccc(F)cc1F", "reported-measurement": "> 100 µM (inactive)"}
{"compound": "N#CC(C#N)=c1c2ccccc2c(=C(C#N)C#N)c2ccccc12", "reported-measurement": "19.8 µM (inactive)"}
{"compound": "CCCCNC1CCC2(SCCS2)c2[nH]c3ccccc3c21 (centres undefined)", "reported-measurement": "3.16 µM (inactive)"}
{"compound": "Cn1c2c(c3ccccc31)CCN1C(=O)C3SC21C1C(=O)N(c2ccccc2)C(=O)C31 (centres undefined)", "reported-measurement": "25 µM (inactive)"}
